# reported response; entries follow
B1: FIP200ΔN1115:Luciferase [human] / GST:NAP1aa5–75 [human] (parent complex)
chain 1: ENYQVGLAELRTLMTIEKDQCISELISRHEEESNILKAELNKVTSLHNQAFEIEKNLKEQIIELQSKLDSELSALERQKDEKITQQEEKYEAIIQNLEKDRQKLVSSQEQDREQLIQKLNCEKDEAIQTALKEFKLEREVVEKELLEKVKHLENQIAKSPAIDSTRGDSSSLVAELQEKLQEEKAKFLEQLEEQEKRKNEEMQNVRTSLIAEQQTNFNTVLTREKMRKENIINDLSDKLKSTMQQQERDKDLIESLSEDRARLLEEKKKLEEEVSKLRSSSFVPSPYVATAPELYGACAPELPGESDRSAVETADEGRVDSAMETSMMSVQENIHMLSEEKQRIMLLERTLQLKEEENKRLNQRLMSQSMSSVSSRHSEKIAIRDFQVGDLVLIILDERHDNYVLFTVSPTLYFLHSESLPALDLKPGEGASGASRRPWVLGKVMEKEYCQAKKAQNRFKVPLGTKFYRVKAVSWNKKV
chain 2: VEDDICILNHEKAHKRDTVTPVSIYSGDESVASHFALVTAYEDIKKRLKDSEKENSLLKKRIRFLEEKLIA

- Variants of: B1
- ASSAY NOTES: LUMIER assay; HEK293ET cell lysates; read off a plot

{"VARIANT ANNOTATION": "chain 1 F459S", "response": "~1.4 fold binding"}
{"VARIANT ANNOTATION": "chain 1 A452S", "response": "~12 fold binding"}
{"VARIANT ANNOTATION": "chain 1 N457S", "response": "~1.4 fold binding"}
{"VARIANT ANNOTATION": "chain 1 V461S", "response": "~1.7 fold binding"}

Origin of measurements: paper PMC6477152
